- test.system: Human PDE7B (hPDE7B) (Homo sapiens, UniProt Q9NP56)
- Sequence (Q9NP56 whole entry): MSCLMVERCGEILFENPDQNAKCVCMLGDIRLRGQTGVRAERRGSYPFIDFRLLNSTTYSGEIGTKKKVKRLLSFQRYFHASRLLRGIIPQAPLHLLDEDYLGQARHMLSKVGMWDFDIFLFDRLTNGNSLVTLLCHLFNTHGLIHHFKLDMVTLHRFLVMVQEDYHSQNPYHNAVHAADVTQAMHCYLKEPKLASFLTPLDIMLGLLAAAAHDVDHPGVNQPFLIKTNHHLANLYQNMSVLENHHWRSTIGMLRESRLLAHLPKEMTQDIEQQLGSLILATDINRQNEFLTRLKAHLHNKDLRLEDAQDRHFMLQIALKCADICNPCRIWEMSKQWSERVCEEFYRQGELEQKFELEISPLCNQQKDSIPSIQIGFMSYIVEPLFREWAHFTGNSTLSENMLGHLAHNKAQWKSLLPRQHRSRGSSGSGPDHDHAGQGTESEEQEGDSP
pIC50: −log10 of the molar value.
Listed here: items and their measured pIC50.

Would you please look over these solved cases?
INSERT INTO measurements (molecule, observed) VALUES
  ('CC1CCC(F)(F)CC1c1nnc2c(N)nccn12 (single isomer, unassigned) [Example 176]', '< 6.00'),
  ('CC1CCCCC1c1nnc2c(N)ncnn12 (single isomer, unassigned) [Example 238]', '> 8.00');

Let's switch to this molecule now.
## Task Hello, I am looking for reported pIC50 with Human PDE7B (hPDE7B) (Homo sapiens, UniProt Q9NP56) for CC1CCC(F)(F)CC1c1nnc2c(N)ncnn12 (racemic) . Could you help?
## Result > 8.00
